Molecular target: Thyrotropin receptor (Homo sapiens)
Assay: qHTS Assay for Agonists of the Thyroid Stimulating Hormone Receptor
Settings: HEK293-CNG-TSHR cells, membrane potential dye, cAMP; series mostly up to 57.1 µM
About 350 (0.48%) of roughly 73,000 compounds were called active. Not shown: some 17% with an inconclusive outcome. The list comes from a sample in which actives are over-represented; it also holds close analogues and randomly drawn compounds.
observedProperty: activation

Would you please look over these solved cases?
{"molecule": "Cc1ccc2nc(-c3ccccc3)cc(C(=O)O)c2c1", "activation": "inactive"}
{"molecule": "C=CCOC(=O)C(C(C)=O)C(NC(=O)OC)c1ccccc1 (stereo not drawn)", "activation": "-0.17% [at 11.4 µM] (inactive)"}
{"molecule": "O=C1C(c2[nH]c3ccccc3c2O)=Nc2ccccc21", "activation": "inactive"}
{"molecule": "CC(=O)OCC(=O)[C@@]1(O)CC[C@@H]2[C@H]3CCC4=CC(=O)C=C[C@]4(C)[C@]3(F)[C@@H](O)C[C@@]21C", "activation": "inactive"}
{"molecule": "CCOC(=O)[C@]1(C(/C=C/c2ccco2)NC(=O)OC)CCCC1=O (stereo partly drawn)", "activation": "14% [at 11.4 µM] (inactive)"}
{"molecule": "Oc1ccc(Cl)cc1/C=N/c1nc2ccccc2[nH]1", "activation": "0.206% [at 11.4 µM] (inactive)"}

Parameter requested: activation. Apply to each item below.
1. CCC(C)n1[nH]c(=O)c2c(C)cc(C)nc21 (stereo not drawn)
2. COC(=O)CSC1=C(C#N)C(c2ccccc2OC)C(C(=O)OC)C(=O)N1 (stereo not drawn)
3. C1CCC2OC2C1 (stereo not drawn)
4. CCc1ccc(-c2nnn(Cc3nn[nH]n3)n2)cc1
5. O=C(COc1ccccc1)NCc1ccc2c(c1)OCO2

1. inactive
2. -3.47% [at 11.4 µM] (inactive)
3. inactive
4. inactive
5. inactive

* * *

Molecular target: Thyrotropin receptor (Homo sapiens)
Assay: qHTS Assay for Agonists of the Thyroid Stimulating Hormone Receptor;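 further: the control signal comes from parental cells without the receptor; % of control where 0% means no effect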
Conditions: HEK293-CNG-TSHR cells, membrane potential dye, cAMP; series mostly up to 57.1 µM
About 350 (0.48%) of roughly 73,000 compounds were called active. Roughly 17% stayed inconclusive and do not appear here. For the sample, actives were picked, then their nearest neighbours and some compounds at random.
observedProperty: activation

Some entries whose results are on file:
{"compound": "CCOC(=O)c1cnc(-n2nc(C)cc2C)nc1Nc1cccc(C(C)=O)c1", "activation": "inactive"}
{"compound": "O=C(Nc1ncccn1)c1cccs1", "activation": "inactive"}
{"compound": "CCCS(=O)(=O)N1CCCC(C(=O)NCc2ccco2)C1 (stereo unspecified)", "activation": "inactive"}
{"compound": "CCNCCCNCCCNCCCNCC", "activation": "inactive"}
{"compound": "CN1CCC(CNC(=O)c2ccc(-n3c(=O)c(=O)[nH]c4ccccc43)cc2)CC1", "activation": "inactive"}
{"compound": "CCOc1cc(/C=N/O)cc(Br)c1OC", "activation": "4.51% [at 11.4 µM] (inactive)"}

Provide activation for all items below, preserving their order.
1. COc1ccc(-c2nnc(SC(=O)N3c4ccccc4Sc4ccccc43)o2)cc1
2. CC(C)CO/N=C1/C[C@@H](O)[C@@H](O)[C@@H]2[C@@H]3C(=O)N(C[C@@H]4CCCO4)C(=O)[C@H]3CC[C@@H]12
3. COc1ccc2oc(=O)c(C(=O)N3CCCc4ccccc43)cc2c1

["-19.2% [at 11.4 µM] (inactive)", "-4.09% [at 11.4 µM] (inactive)", "inactive"]

Quick request: activation for each listed item, please.
1. C=CCn1cnc2scc(-c3ccccc3)c2c1=O
2. Cc1ccc(S(=O)(=O)N2CCCC2CO)cc1 (stereo unspecified)

["inactive", "-5.75% [at 11.4 µM] (inactive)"]

* * *

Molecular target: Thyrotropin receptor (Homo sapiens) (UniProt P16473)
Sequence (P16473 whole entry, looked up): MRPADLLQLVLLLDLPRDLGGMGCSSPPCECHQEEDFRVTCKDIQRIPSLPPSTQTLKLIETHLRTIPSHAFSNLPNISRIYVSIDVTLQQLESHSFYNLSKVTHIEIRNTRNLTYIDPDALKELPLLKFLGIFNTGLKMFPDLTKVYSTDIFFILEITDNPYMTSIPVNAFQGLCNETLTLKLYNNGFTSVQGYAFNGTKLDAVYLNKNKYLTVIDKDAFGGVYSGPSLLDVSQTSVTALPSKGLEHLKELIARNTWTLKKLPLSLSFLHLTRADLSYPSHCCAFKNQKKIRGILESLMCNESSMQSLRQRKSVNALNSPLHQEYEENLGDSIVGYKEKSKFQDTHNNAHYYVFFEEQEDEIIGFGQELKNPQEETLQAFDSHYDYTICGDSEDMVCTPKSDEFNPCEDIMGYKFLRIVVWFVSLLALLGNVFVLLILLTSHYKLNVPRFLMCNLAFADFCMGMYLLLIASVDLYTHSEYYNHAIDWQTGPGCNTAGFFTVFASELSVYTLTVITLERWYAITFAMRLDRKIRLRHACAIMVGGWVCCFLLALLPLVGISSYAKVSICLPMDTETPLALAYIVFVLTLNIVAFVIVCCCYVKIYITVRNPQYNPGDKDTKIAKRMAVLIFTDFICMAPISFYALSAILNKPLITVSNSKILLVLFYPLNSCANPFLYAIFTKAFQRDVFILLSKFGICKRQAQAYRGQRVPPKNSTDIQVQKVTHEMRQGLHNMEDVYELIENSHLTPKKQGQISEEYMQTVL
Test: qHTS Assay for Agonists of the Thyroid Stimulating Hormone Receptor;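 further: the control signal comes from parental cells without the receptor; % of control where 0% means no effect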
Conditions: HEK293-CNG-TSHR cells, membrane potential dye, cAMP; series mostly up to 57.1 µM
Screen size: about 73,000 compounds; about 350 (0.48%) were called active. About 17% were inconclusive and are not listed. Shown is part of a subset that was picked to be rich in actives.
observedProperty: activation

Some entries whose results are on file:
{"molecule": "Cc1noc(C)c1-c1nc(Nc2ccccc2)c2ccccc2n1", "experimentalSystem": "Thyrotropin receptor (Homo sapiens) (UniProt P16473)", "activation": "inactive"}
{"molecule": "C#CCC(C(=O)OC)(C(=O)OC)C(C[N+](=O)[O-])c1ccccc1 (configuration not stated)", "experimentalSystem": "Thyrotropin receptor (Homo sapiens) (UniProt P16473)", "activation": "7.7% [at 11.4 µM] (inactive)"}
{"molecule": "CCC(C)(C)N=C(NC#N)Nc1cccnc1", "experimentalSystem": "Thyrotropin receptor (Homo sapiens) (UniProt P16473)", "activation": "inactive"}
{"molecule": "CCCn1c(C)nc2c(NCCCCN(CC)CC)nc(C)nc21", "experimentalSystem": "Thyrotropin receptor (Homo sapiens) (UniProt P16473)", "activation": "inactive"}
{"molecule": "Cc1cccc(C(=O)O)c1", "experimentalSystem": "Thyrotropin receptor (Homo sapiens) (UniProt P16473)", "activation": "inactive"}
{"molecule": "CN1CCCc2cc(C#N)c(=O)[nH]c21", "experimentalSystem": "Thyrotropin receptor (Homo sapiens) (UniProt P16473)", "activation": "4.78% [at 11.4 µM] (inactive)"}

Now for the molecule whose activation we want.
# query: activation of entry CCOc1ccccc1C1NC(=O)NC(C)=C1C(=O)OCc1ccco1 (configuration not stated)
inactive

* * *

Record form. Attribute: activation. Fill in for each entry.
Experiment: qHTS Assay for Agonists of the Thyroid Stimulating Hormone Receptor;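 further: the control signal comes from parental cells without the receptor; % of control where 0% means no effect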
Details: HEK293-CNG-TSHR cells, membrane potential dye, cAMP; measured here: parental cells max response
Among all 73,000 compounds or so, about 350 (0.48%) were called active. Roughly 17% stayed inconclusive and do not appear here. This is one part of a sample in which actives are shown more often than they occur.
Give bare numbers, in %.

Example results:
{"compound": "C=C(C)COc1ccc(-c2n[nH]c(C)c2-c2ccccc2OC)c(O)c1", "observedProperty": "activation", "numericReadout": 8.35}
{"compound": "CCc1cc(=O)oc2cc(C)cc(OC(C)C(=O)O)c12 (stereo unspecified)", "observedProperty": "activation", "numericReadout": 10.3}
{"compound": "C/C(CCN1CCc2nc(-c3ccccc3)c(-c3ccccc3)cc2C1)=N\\O[C@@H](C)c1cn([C@@H]2COC[C@@H]2O)nn1", "observedProperty": "activation", "numericReadout": 0.56}
{"compound": "COC(=O)c1cn(-c2ccccc2)nc1-c1cccnc1", "observedProperty": "activation", "numericReadout": 9.42}
{"compound": "COc1ccc(-c2n[nH]c(C)c2-c2ccc(OC)c(OC)c2)c(O)c1", "observedProperty": "activation", "numericReadout": 11.3}

Respectfully, I request activation for each entry included below.
1. C/C(CCN1CCCCc2nc(C)c(C)cc21)=N\O[C@@H](C)c1cn([C@@H]2COC[C@@H]2O)nn1
2. COc1ccc(OC)c(Nc2nc(-c3ccc(O)c(O)c3)cs2)c1

6.27
-4.42

Would you mind listing activation for each of the following compounds?
1. Cc1ccc2nc(CC(=O)c3ccc4ccccc4c3)c(=O)[nH]c2c1
2. COc1ccc(-c2nc(-c3ccccc3)no2)c(OC)c1
3. CCOc1ccccc1Oc1cn[nH]c1-c1ccc(OC)cc1O
4. c1ccc2nc(C3=NCCN3)cnc2c1

[22.3, 7.25, 7.48, -2.21]

* * *

Assay: qHTS Assay for Agonists of the Thyroid Stimulating Hormone Receptor;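 further: the control signal comes from parental cells without the receptor; % of control where 0% means no effect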
Conditions: HEK293-CNG-TSHR cells (CNG channel as cAMP sensor), membrane potential dye, cAMP; measured here: parental cells max response
Hit rate of the full screen: of about 73,000 compounds, about 350 (0.48%) were called active. Inconclusive results (about 17%) are left out. The entries come from a sample that favours actives as a whole.
Exercise: state measured activation for each of the molecules provided.
Numbers only, in %.

Worked examples, 4 molecules total:
{"molecule": "CC1(C)S[C@@H]2[C@@H](NC(=O)[C@@H](N)c3ccccc3)C(=O)N2[C@H]1C(=O)O", "valueUnits": "%", "numericReadout": -1.13}
{"molecule": "COC(=O)c1ccc(/C=N\\n2c(C)nnc2C)cc1", "valueUnits": "%", "numericReadout": 10.1}
{"molecule": "COc1ccc(O)c(C=Nc2cc(C)on2)c1", "valueUnits": "%", "numericReadout": -5.94}
{"molecule": "Cc1c(S(=O)(=O)O)ccc(N=Nc2c(O)c(C(=O)O)cc3ccccc23)c1Cl", "valueUnits": "%", "numericReadout": -23.8}

Now let's try a different one.
# input molecule: Cc1cc(C)cc(C#CC2C=CC(Oc3ccc(C4CCCC4)cc3)C(CO)O2)c1 (stereo not given) ; wanted: its activation
16.7
